Tested on: JNK2 mRNA
assay details: Northern assay of JNK2 mRNA expression in A549 cells
Format: cell-based, human
setup conditions: JNK2 mRNA, A549 cells, 400 nM oligonucleotide, relative to LIPOFECTIN-only control
Strand notation (5' to 3'): a small letter for the sugar, then the base; units joined by * are phosphorothioate-linked, units joined directly phosphodiester-linked; [ ] holds rarer units or linkages, { } end groups; capitals alone tell only the bases. d = 2'-deoxy (DNA)
property: % EXPRESSION (%)
Number only, in %; omit the unit.

Some solved cases for reference:
| substance | measurement target | recorded number |
| --- | --- | --- |
| 12562 (antisense dG*dC*dT*dC*dT*dC*dC*dC*dA*dT*dG*dA*dT*dG*dC*dA*dA*dC*dC*dC) [compound 12562] | JNK2 mRNA | 89 |
| 12570 (antisense dG*dG*dG*dC*dA*dA*dG*dT*dC*dC*dA*dA*dG*dC*dA*dA*dG*dC*dA*dT) [compound 12570] | JNK2 mRNA | 24 |

-- ask Which value of % EXPRESSION has been reported for 12569 (antisense dG*dG*dT*dC*dT*dG*dA*dA*dT*dA*dG*dG*dG*dC*dA*dA*dG*dG*dC*dA) [compound 12569] in the records?
-- reply 13

-- ask 12559 (antisense dT*dG*dC*dA*dG*dC*dA*dC*dA*dA*dA*dC*dA*dA*dT*dC*dC*dC*dT*dT) [compound 12559] ?
-- reply 28

-- ask Another substance to check: 12558 (antisense dG*dT*dT*dT*dC*dA*dG*dA*dT*dC*dC*dC*dT*dC*dG*dC*dC*dC*dG*dC) [compound 12558]
-- reply 15

-- ask What about this substance? 12563 (antisense dA*dT*dG*dG*dG*dT*dG*dA*dC*dG*dC*dA*dG*dA*dG*dC*dT*dT*dC*dG) [compound 12563]
-- reply 22

-- ask Record: 12565 (antisense dT*dG*dA*dG*dA*dA*dG*dG*dA*dG*dT*dG*dG*dC*dG*dT*dT*dG*dC*dT) [compound 12565]
-- reply 19
